# assaySystem: recombinant soluble human furin (Homo sapiens, UniProt P09958)
# Sequence (P09958 108-715 limits assumed): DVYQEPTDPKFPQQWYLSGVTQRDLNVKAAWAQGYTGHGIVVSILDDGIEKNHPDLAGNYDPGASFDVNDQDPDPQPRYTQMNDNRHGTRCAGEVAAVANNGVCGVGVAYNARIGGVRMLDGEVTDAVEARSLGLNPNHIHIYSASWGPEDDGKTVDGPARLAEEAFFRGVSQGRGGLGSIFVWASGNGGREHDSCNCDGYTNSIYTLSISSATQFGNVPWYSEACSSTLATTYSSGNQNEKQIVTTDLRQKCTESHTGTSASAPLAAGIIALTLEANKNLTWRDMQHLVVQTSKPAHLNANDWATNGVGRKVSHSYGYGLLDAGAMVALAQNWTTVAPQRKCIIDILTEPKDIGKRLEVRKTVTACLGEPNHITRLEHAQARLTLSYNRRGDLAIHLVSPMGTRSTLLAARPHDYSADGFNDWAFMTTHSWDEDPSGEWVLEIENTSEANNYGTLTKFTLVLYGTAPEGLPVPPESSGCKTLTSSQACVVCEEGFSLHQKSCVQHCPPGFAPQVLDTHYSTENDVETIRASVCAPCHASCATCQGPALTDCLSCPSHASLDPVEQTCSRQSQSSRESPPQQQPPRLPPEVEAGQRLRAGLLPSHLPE
# methodNotes: Enzyme kinetic measurements with recombinant soluble human furin
# Assay type: biochemical
# conditionDescription: Furin Ki, as given in the text in nM
experimentalReadout: Ki (nM)
Please respond with the number in nM and leave the unit unwritten.

CC(C)[C@H](NC(=O)Cc1ccc(CN)cc1)C(=O)N[C@@H](CCCNC(=N)N)C(=O)NCc1ccc(C(=N)N)cc1 [Compound 24, 4-AMe-Phac-Val-Arg-4-Amba]
37.8

Entry CC(C)[C@H](NC(=O)Cc1cccc(CN)c1)C(=O)N[C@@H](CCCNC(=N)N)C(=O)NCc1ccc(C(=N)N)cc1 [Compound 23, 3-AMe-Phac-Val-Arg-4-Amba] , tested on recombinant soluble human furin (Homo sapiens, UniProt P09958), has a reported Ki of 48.2
